pEC50 values by entry
target: STING (Homo sapiens, UniProt Q86WV6, G230A/H232R/R293Q/R71H); test: STING reporter assay: luciferase reporter activity in THP1-Dual KO-IFNAR2 cells stimulated with 2′3′cGAMP; settings: 15 μM 2′3′cGAMP, 24h, read-out: hSTING EC50
Sequence (Q86WV6 whole entry R71H/G230A/H232R/R293Q): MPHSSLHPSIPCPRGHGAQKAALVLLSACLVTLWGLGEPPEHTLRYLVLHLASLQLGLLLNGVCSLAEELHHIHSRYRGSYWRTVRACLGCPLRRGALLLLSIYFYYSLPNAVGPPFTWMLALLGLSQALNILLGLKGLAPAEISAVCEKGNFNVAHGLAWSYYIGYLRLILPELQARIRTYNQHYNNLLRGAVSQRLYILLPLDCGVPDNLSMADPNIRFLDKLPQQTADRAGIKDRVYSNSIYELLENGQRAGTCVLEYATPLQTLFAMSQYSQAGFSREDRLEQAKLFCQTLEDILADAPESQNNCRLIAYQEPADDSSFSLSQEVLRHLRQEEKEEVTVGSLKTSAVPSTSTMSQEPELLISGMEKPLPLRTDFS
pEC50: −log10 of the molar value.

Examples with answers:
O=C(COCC(F)(F)F)Nc1c[nH]c2ccc(-c3cnn(-c4ccc(C(F)(F)F)cc4)c3)cc12 [Compound 207] has a reported pEC50 of 6.00 to 6.70

Given item Cc1cc(C(=O)Nc2c[nH]c3ccc(-c4cnn(-c5ccc(C(F)(F)F)cc5)c4)cc23)no1 [Compound 274] , the value recorded as its pEC50 is 6.00 to 6.70

COCC1(C(=O)Nc2c[nH]c3ccc(-c4cnn(-c5ccc(C(F)(F)F)cc5)c4)cc23)CCC1 [Compound 199] has a reported pEC50 of 5.30 to 6.00

Next:
pEC50 for CC(=O)Nc1c[nH]c2ccc(-c3cnn([C@H](C)c4cccc(C(F)(F)F)c4)c3)cc12 [Compound 176] is 6.00 to 6.70
